Target: Insulin amyloid aggregates
Experiment: Competition assay with Thioflavin T (ThT) for binding to insulin amyloid aggregates, fluorescence 96-well plate
Details: 0.5 μM ThT, 2 μg per well fibrils, 25 mM sodium phosphate pH 6.0, room temperature
Description: Burke M. J. and Rougevie M. A., Cross-β Protein Structures. I. Insulin Fibrils. […] Briefly, lyophilized insulin protein powder dissolved at 10 mg/mL in 50 mM HCl was alternately heated to 95° C. and frozen in dry ice to form amyloid aggregates. The ability of compounds of Formula I to compete with Thioflavin T (ThT) for binding to amyloid aggregates was measured using fluorescence in a 96-well fluorescence plate assay. […] Results are expressed as % maximal fluorescence (no competing compound). […]
endpoint: log10(IC50) (log10 of the value in nM)
Scale: log10; quantity: IC50; unit before log: nM

Requested read-out: log10(IC50). Entry: COc1ccc2c(c1)sc(/C=C/c1ccc(N(C)C)c3ccccc13)[n+]2C
1.41

Repeat with CN(C)c1ccc(/C=C/c2sc3ccccc3[n+]2Cc2ccc(F)cc2)cc1
1.62

Repeat with CCCCCCC[n+]1c(/C=C/c2ccc(N(CCCC)CCCC)cc2)sc2ccccc21
1.95

Repeat with CN(C)c1ccc(/C=C/c2sc3ccccc3[n+]2CCCOCc2ccccc2)cc1
1.72

Others:
Requested read-out: log10(IC50). Entry: Cc1ccc2nc(/C=C/c3ccc(N(C)C)cc3)sc2c1
3.18

----------
target: βA(1-40) amyloid aggregates (Homo sapiens, UniProt P05067); construct: lyophilized β(1-40) protein powder (which may be purchased from BACHEM); purchased BACHEM; assay: Competition assay with Thioflavin T (ThT) for binding to β(1-40) amyloid aggregates, fluorescence 96-well plate
Sequence (P05067 672-711 limits assumed): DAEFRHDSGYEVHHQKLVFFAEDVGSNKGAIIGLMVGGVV
# Lookup of reported IC50 keyed by entry
Report the value in nM with no unit label.

Requested read-out: IC50. Entry: CN(C)c1ccc(/C=C/c2sc3ccccc3[n+]2Cc2cccc(C(=O)c3ccccc3)c2)cc1 [Example 29]
230

Repeat with CN(C)c1ccc(/C=C/c2sc3ccccc3[n+]2Cc2ccc(F)cc2)cc1 [Example 25]
120

Repeat with CN(C)c1ccc(/C=C/c2sc3ccc(F)cc3[n+]2Cc2ccccc2)cc1 [Example 15]
170

Repeat with C=CC[n+]1c(/C=C/c2ccc(N(C)C)cc2)sc2ccccc21 [Example 10]
300

Repeat with Cc1ccc2c(c1)sc(/C=C/c1ccc(N(C)C)cc1)[n+]2Cc1ccccc1 [Example 18]
130

Repeat with CN(C)c1ccc(/C=C/c2sc3ccccc3[n+]2Cc2ccccc2)cc1 [Example 6]
110

Repeat with CN(C)c1ccc(/C=C/c2sc3ccccc3[n+]2Cc2cccc(Oc3ccccc3)c2)cc1 [Example 30]
120

Now consider the entry below.
Requested read-out: IC50. Entry: CN(C)c1ccc(/C=C/c2sc3ccccc3[n+]2Cc2ccc3ccccc3c2)cc1 [Example 27]
120

----------
biological target: Insulin amyloid aggregates; assay: Competition assay with Thioflavin T (ThT) for binding to insulin amyloid aggregates, fluorescence 96-well plate; conditions: 0.5 μM ThT, 2 μg per well fibrils, 25 mM sodium phosphate pH 6.0, room temperature
# Lookup of reported log10 of IC50 keyed by entry
Scale: log10; quantity: IC50; unit before log: nM

Requested read-out: log10 of IC50. Entry: CCCCCCC[n+]1c(/C=C/c2ccc(N(C)C)cc2)sc2cc(OC)ccc21 [Example 20]
1.60

Repeat with CCCC[n+]1c(/C=C/c2ccc(N(C)C)cc2)sc2ccccc21 [Example 11]
1.43

Repeat with Cc1ccc2sc(/C=C/c3ccc(N(C)C)cc3)nc2c1 [Example 3]
2.95

Repeat with COc1ccc2c(c1)sc(N=Nc1ccc(N(C)C)cc1)[n+]2C [Example 53]
1.00

Repeat with CN(C)c1ccc(/C=C/c2sc3ccccc3[n+]2Cc2cccc(Oc3ccccc3)c2)cc1 [Example 30]
2.26

Now consider the entry below.
Requested read-out: log10 of IC50. Entry: CCCCCCC[n+]1c(/C=C/c2ccc(N3CCCC3)cc2)sc2ccccc21 [Example 46]
1.62

----------
target: Insulin amyloid aggregates; assay: Competition assay with Thioflavin T (ThT) for binding to insulin amyloid aggregates, fluorescence 96-well plate; details: 0.5 μM ThT, 2 μg per well fibrils, 25 mM sodium phosphate pH 6.0, room temperature
# Lookup of reported log10 IC50 keyed by entry
Scale: log10; quantity: IC50; unit before log: nM

Give log10 IC50 (Insulin amyloid aggregates) of the following compound: Cc1ccc2c(c1)sc(/C=C/c1ccc(N(C)C)cc1)[n+]2Cc1ccccc1
1.70

Repeat with Nc1ccc(/N=N/c2nc3ccccc3s2)c2ccccc12
2.04

Others:
Give log10 IC50 (Insulin amyloid aggregates) of the following compound: Cc1ccc2sc(/C=C/c3ccc(N(C)C)cc3)[n+](C)c2c1
0.88

Repeat with CN(C)c1ccc(/C=C/c2sc3ccccc3[n+]2Cc2ccccc2)cc1
1.08

Repeat with CN(C)c1ccc(/C=C/c2sc3ccccc3[n+]2Cc2cccc(C(=O)c3ccccc3)c2)cc1
2.11

Repeat with CN(C)c1ccc(/C=C/c2sc3ccccc3[n+]2C/C=C/c2ccccc2)cc1
1.90

Repeat with CN(C)c1ccc(/C=C/c2sc3ccccc3[n+]2Cc2ccc(-c3ccccc3)cc2)cc1
1.53

----------
target: Insulin amyloid aggregates; assay: Competition assay with Thioflavin T (ThT) for binding to insulin amyloid aggregates, fluorescence 96-well plate; details: 0.5 μM ThT, 2 μg per well fibrils, 25 mM sodium phosphate pH 6.0, room temperature
# Lookup of reported log10(IC50) keyed by entry
Scale: log10; quantity: IC50; unit before log: nM

Consider the reported log10(IC50) for these molecules:
Requested read-out: log10(IC50). Entry: CN(C)c1ccc(/C=C/c2nc3cc(Cl)ccc3s2)cc1
5.00

Repeat with CN(C)c1ccc(/C=C/c2sc3ccccc3[n+]2CCC2CCCCC2)cc1
1.72

Repeat with CN(C)c1ccc(/C=C/c2sc3ccccc3[n+]2CCCC(c2ccccc2)c2ccccc2)cc1
2.32

Repeat with CCCCCCC[n+]1c(/C=C/c2ccc(N(CC)CC)cc2)sc2ccccc21
2.08

Now consider the entry below.
Requested read-out: log10(IC50). Entry: COc1ccc2nc(/N=N/c3ccc(N(C)C)cc3)sc2c1
2.85

----------
# Lookup of reported log10(IC50) keyed by entry
target: βA(1-40) amyloid aggregates (Homo sapiens); construct: lyophilized β(1-40) protein powder (which may be purchased from BACHEM); purchased BACHEM; test: Competition assay with Thioflavin T (ThT) for binding to β(1-40) amyloid aggregates, fluorescence 96-well plate; conditions: 20 μM ThT, 5 μg/well fibrils, 25 mM sodium phosphate pH 6.0, room temperature; read-out: βA(1-40), IC50
Scale: log10; quantity: IC50; unit before log: nM

Consider the reported log10(IC50) for these compounds:
Requested read-out: log10(IC50). Entry: CN(C)c1ccc(/C=C/c2[s+]c3ccc4ccccc4c3n2C)cc1 [Example 8]
2.32

Repeat with CN(C)c1ccc(/C=C/c2sc3c4ccccc4ccc3[n+]2C)cc1 [Example 24]
2.32

Repeat with CN(C)c1ccc(/C=C/c2sc3ccccc3[n+]2CCC2CCCCC2)cc1 [Example 38]
2.08

Others:
Requested read-out: log10(IC50). Entry: Nc1ccc(/N=N/c2nc3ccccc3s2)c2ccccc12 [Example 48]
2.08

Repeat with CCCCCCC[n+]1c(/C=C/c2ccc(N(C)C)c3ccccc23)sc2ccccc21 [Example 39]
2.20

Repeat with CN(C)c1ccc(/C=C/c2sc3ccc4ccccc4c3[n+]2C)c2ccccc12 [Example 42]
2.40

Repeat with Cc1ccc2sc(/C=C/c3ccc(N(C)C)cc3)[n+](C)c2c1 [Example 16]
2.60

Repeat with COc1ccc2c(c1)sc(N=Nc1ccc(N(C)C)cc1)[n+]2C [Example 53]
2.61

Repeat with CCCCCCC[n+]1c(/C=C/c2ccc(N(C)C)cc2)sc2ccccc21 [Example 12]
1.97

Repeat with CN(C)c1ccc(/C=C/c2sc3ccccc3[n+]2C)cc1 [Example 9]
3.00

Repeat with CN(C)c1ccc(/C=C/c2sc3ccc(Cl)cc3[n+]2C)cc1 [Example 13]
2.63

Repeat with CN(C)c1ccc(/C=C/c2sc3cc4ccccc4cc3[n+]2C)cc1 [Example 23]
2.08

Repeat with CN(C)c1ccc(/C=C/c2sc3ccccc3[n+]2CCCc2ccccc2)cc1 [Example 31]
2.30

Repeat with CC[n+]1c(/C=C/c2ccc(N(C)C)cc2)sc2ccccc21 [Example 7]
2.60

Repeat with CN(C)c1ccc(/C=C/c2sc3ccccc3[n+]2CCCCOc2ccccc2)cc1 [Example 35]
2.23

Repeat with CCCC[n+]1c(/C=C/c2ccc(N(C)C)cc2)sc2ccccc21 [Example 11]
2.20

Repeat with CN(C)c1ccc(/C=C/c2sc3ccccc3[n+]2CCCOCc2ccccc2)cc1 [Example 34]
2.15

Repeat with CN(C)c1ccc(/C=C/c2sc3ccccc3[n+]2CCCC(c2ccccc2)c2ccccc2)cc1 [Example 33]
2.66

Repeat with CCCCCCC[n+]1c(/C=C/c2ccc(N(CCCC)CCCC)cc2)sc2ccccc21 [Example 45]
2.78

Repeat with CN(C)c1ccc(/C=C/c2sc3ccccc3[n+]2Cc2ccc(-c3ccccc3)cc2)cc1 [Example 26]
2.38

Repeat with CN(C)c1ccc(/C=C/c2sc3ccc(F)cc3[n+]2C)cc1 [Example 14]
3.00

Repeat with CN(C)c1ccc(/N=N/c2nc3ccc(Cl)cc3s2)cc1 [Example 50]
3.11

Repeat with COc1ccc2c(c1)sc(/C=C/c1ccc(N(C)C)c3ccccc13)[n+]2C [Example 41]
2.63

Repeat with COc1ccc2nc(/N=N/c3ccc(N(C)C)c4ccccc34)sc2c1 [Example 51]
3.40

Measured values drawn from patent US6001331A for this set.
